Test system: human SMAD7 mRNA
run.description: Dose-dependent inhibition of human SMAD7 mRNA expression in Hep3B cells (Example 3, Study 1 and 2)
Assay type: cell-based
condition.info: 20000.0 nM, electroporation, approximately 16 hours, Study 2
Strand notation (5' to 3'): a small letter for the sugar, then the base; units joined by * are phosphorothioate-linked, units joined directly phosphodiester-linked; [ ] holds rarer units or linkages, { } end groups; capitals alone tell only the bases. k = constrained ethyl (cEt); [5mC] = 5-methylcytosine; d = 2'-deoxy (DNA)
reported.endpoint: % inhibition of SMAD7 mRNA expression (%)
State just the number; it will be interpreted in %.

Example substances with recorded % inhibition of SMAD7 mRNA expression:
799608 (kA*k[5mC]*kG*dA*dT*d[5mC]*dA*dA*d[5mC]*dT*dT*d[5mC]*dT*kT*kG*kA; antisense) [compound 799608]    76
799366 (antisense kT*k[5mC]*kT*d[5mC]*d[5mC]*dG*dA*dG*dT*dT*dA*dT*d[5mC]*k[5mC]*k[5mC]*k[5mC]) [compound 799366]    76

Next item in the queue.
% inhibition of SMAD7 mRNA expression reported for this substance 830053 (kG*kG*kG*dT*dG*dA*dG*dT*dA*dA*d[5mC]*d[5mC]*dA*kG*k[5mC]*kT; antisense) [compound 830053] : 87
